Data provenance is ChEMBL document CHEMBL3864167.

protocol_summary: Lipophilicity, logD of compund at pH 7.4
Assay type: physicochemical
test_settings: buffer
assay_endpoint: logD

INSERT INTO assay_data (compound, recorded_number) VALUES
  ('COc1ccc(CNC(=O)N2[C@H](C)CN(CCC(C)C)c3cnccc3[C@@H]2C)cc1 (racemic)', 4),
  ('CC(C)CCN1C[C@@H](C)N(C(=O)Nc2cccnc2)[C@@H](C)c2ccncc21 (racemic)', 3.2),
  ('C[C@@H]1CN(Cc2ccccc2)c2cnccc2[C@H](C)N1C(=O)NCc1ccccc1 (racemic)', 3.1),
  ('C[C@@H]1CN(Cc2ccccc2)c2cncc(F)c2[C@H](C)N1C(=O)Nc1cccnc1 (racemic)', 3.3);
